System: RPS6KA4(Kin.Dom.1-N-terminal);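 further: KINOMEscan kinase panel screen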
assay.conditions: concentration: 1 μM, replicates: in singlicate; n = 1
Quick reference for %Inh among some compounds

# test.smiles, %Inh / %
data = [
    ("O=C(O)C(F)(F)F.O=c1[nH]ccc2nc(N[C@@H]3CCNC3)nc(Nc3cc(Cl)cc(Cl)c3)c12", 94.6),
    ("O=C(Nc1c(F)cccc1F)c1cc(C(=O)c2ccccc2F)c[nH]1", 8),
    ("Cc1ccc(C)c(NC(=O)Nc2ccc(C)c(-c3ccc(C(=O)Nc4ccncc4)cc3)c2)c1", 37),
    ("COc1cccc2c(-c3ccncc3)c(-c3ccc(F)cc3)nn12", 4),
]

The reported numbers originate from paper PMC5540273.
